Entry source: patent US20200397865A1

- Target System: T1, ActRIIB-Fc homodimer (UniProt Q13705 20-134, limits assumed)
- T1 construct: also called ActRIIB-Fc:ActRIIB-Fc homodimer; ActRIIB homodimer; not shown: linker and Fc
- T1 sequence (looked up): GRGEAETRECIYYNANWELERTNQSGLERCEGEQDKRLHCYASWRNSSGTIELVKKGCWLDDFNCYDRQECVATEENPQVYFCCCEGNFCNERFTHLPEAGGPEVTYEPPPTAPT
- Procedure Details: SPR (Biacore), Fc protein captured by anti-Fc antibody, ligand injected
Entries annotated with measured pKd
Lab note — pKd values are minus log10 of concentrations in M.

For orientation, consider the following solved cases.
Binder	pKd
GDF11 (ligand, UniProt O95390 299-407, looked up, also called BMP11) NLGLDCDEHSSESRCCRYPLTVDFEAFGWDWIIAPKRYKANYCSGQCEYMFMQKYPHTHLVQQANPRGSAGPCCTPTKMSPINMLYFNDKQQIIYGKIPGMVVDRCGCS	11.70
GDF3 (ligand, UniProt Q9NR23 251-364, looked up) AAIPVPKLSCKNLCHRHQLFINFRDLGWHKWIIAPKGFMANYCHGECPFSLTISLNSSNYAFMQALMHAVDPEIPQAVCIPTKLSPISMLYQDNNDNVILRHYEDMVVDECGCG	8.82
BMP9 (ligand, UniProt Q9UK05 320-429, looked up, also called GDF2) SAGAGSHCQKTSLRVNFEDIGWDSWIIAPKEYEAYECKGGCFFPLADDVTPTKHAIVQTLVHLKFPTKVGKACCVPTKLSPISVLYKDDMGVPTLKYHYEGMSVAECGCR	10.11

Turning now to a further record.
For BMP10 (ligand, UniProt O95393 317-424, looked up) NAKGNYCKRTPLYIDFKEIGWDSWIIAPPGYEAYECRGVCNYPLAEHLTPTKHAIIQALVHLKNSQKASKACCVPTKLEPISILYLDKGVVTYKFKYEGMAVSECGCR the binder record lists pKd as 10.96
